# Test system: BDF1 mice, B16 melanoma ip, median survival T/C
# assay_protocol: NCI In Vivo Anticancer Drug Screen. Data for tumor model B16 Melanoma (intraperitoneal) in B6D2F1 (BDF1) mice
# recorded_conditions: endpoint: median survival time; dose: 400.0 mg/kg/injection; schedule: Q04DX003 (ip); vehicle: saline with Tween-80; higher = longer survival
Inconclusive results and toxic doses are left out.

| molecule | T/C |
| --- | --- |
| O=C(/C=C\c1ccccc1)/C=C/c1ccccc1 | 102 % of control |
| Cc1nc(SCc2ccc(Cl)cc2)[nH]c(=O)c1CCO | 92 % of control |
| O=C(OC1CC2CC=CC21)c1ccc([N+](=O)[O-])cc1 (centres undefined) | 94 % of control |
| S=P(NCCS)(N1CC1)N1CC1 | 95 % of control |
